- Experiment notes: Alkali metal dependent formation of 1,5-cz-Lig and 1,4-cz-Lig isomers from Lig at pH 10.2 (Chart 14)
- Assay type: physicochemical
- Test context: B: 1 day at 80° C.; Borate/(M^I)2CO3 buffer pH 10.2
Cut-off 2% on conversion to 1,4-cz-Lig isomer, Na^I: below means 1, at or above means 0.

[[record]]
compound = "C#Cc1cccc(CN2CCNCCN(Cc3cccc(CN=[N+]=[N-])n3)CCN(CC(=O)O)CC2)n1 [TD703]"
cat = 0

[[record]]
compound = "C#CCNC(=O)CN1CCN(CC(=O)O)CCN(Cc2cc(-c3ccccc3)cc(CN=[N+]=[N-])n2)CCN(CC(=O)O)CC1 [TD425]"
cat = 1


Lab note: confirm whether the reported conversion to 1,4-cz-Lig isomer, Na^I for this compound is below 2%, equality not counting. compound: C#Cc1cccc(CN2CCN(CP(=O)(O)c3ccccc3)CCN(Cc3cccc(CN=[N+]=[N-])n3)CCN(CP(=O)(O)c3ccccc3)CC2)n1 [TD921]
0

Would you mind doing C#Cc1cccc(CN2CCN(CP(=O)(O)O)CCN(Cc3cccc(CN=[N+]=[N-])n3)CCN(CP(=O)(O)O)CC2)n1 [TD581] as well?
0

Would you mind doing C#Cc1cccc(CN2CCN(CC(=O)O)CCN(Cc3cccc(CN=[N+]=[N-])n3)CCN(CP(=O)(O)O)CC2)n1 [TD714] as well?
0

Would you mind doing C#Cc1cccc(CN2CCN(CC(=O)O)CCN(Cc3cc(-c4ccccc4)cc(CN=[N+]=[N-])n3)CCN(CC(=O)O)CC2)n1 [TD647] as well?
1
